Target: Peroxisome proliferator-activated receptor alpha (Mus musculus)
Sequence (P23204 whole entry): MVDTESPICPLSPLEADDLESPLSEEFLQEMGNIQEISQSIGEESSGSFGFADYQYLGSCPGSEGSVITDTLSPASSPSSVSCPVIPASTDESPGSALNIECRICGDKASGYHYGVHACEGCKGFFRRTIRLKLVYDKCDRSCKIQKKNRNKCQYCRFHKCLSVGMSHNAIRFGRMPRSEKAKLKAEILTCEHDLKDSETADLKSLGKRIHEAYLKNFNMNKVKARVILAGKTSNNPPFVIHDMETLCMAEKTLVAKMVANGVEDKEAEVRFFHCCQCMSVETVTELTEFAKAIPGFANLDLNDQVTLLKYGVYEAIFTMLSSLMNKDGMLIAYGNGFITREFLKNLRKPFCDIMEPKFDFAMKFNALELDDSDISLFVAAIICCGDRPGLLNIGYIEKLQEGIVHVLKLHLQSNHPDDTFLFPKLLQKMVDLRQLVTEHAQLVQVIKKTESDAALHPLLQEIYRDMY
Test: Agonist activity at mouse PPARalpha expressed in CV-1 cells by reporter gene assay
measuredAttribute: EC50

{"columns": ["molecule", "measuredAttribute", "recordedValue"],
 "data": [
  ["CCCCn1c(-c2ccc3nn(CCC)c(Cc4ccc(-c5ccccc5C(=O)O)cc4)c3c2)nc2ccccc21", "EC50", "> 10 µM"],
  ["CCCc1c(Cc2ccc(-c3ccccc3C(=O)O)cc2)c2ccc(C(=O)NC(CC)c3ccccc3)cc2n1C (stereo not given)", "EC50", "0.17 µM"],
  ["CCCc1[nH]c2cc(C(=O)NC(CC)c3ccccc3)ccc2c1Cc1ccc(-c2ccccc2C(=O)O)cc1 (stereo not given)", "EC50", "0.79 µM"],
  ["CCCc1nn2ccc(C(=O)NC(CC)c3ccccc3)cc2c1Cc1ccc(-c2ccccc2C(=O)O)cc1 (stereo not given)", "EC50", "> 10 µM"],
  ["CCCc1[nH]c2ccc(C(=O)NC(CC)c3ccccc3)cc2c1Cc1ccc(-c2ccccc2C(=O)O)cc1 (stereo not given)", "EC50", "> 10 µM"],
  ["CCCc1nn2ccc(-c3nc4ccccc4n3CCC)cc2c1Cc1ccc(-c2ccccc2C(=O)O)cc1", "EC50", "> 10 µM"]
]}

Name the recorded EC50 of the item CCCc1c(Cc2ccc(-c3ccccc3C(=O)O)cc2)c2cc(C(=O)NC(CC)c3ccccc3)ccc2n1OC (stereo not given) in your answer.
> 10 µM

Name the recorded EC50 of the item CCCc1nn2ccc(-c3nc4ccccc4n3CCC)cc2c1Cc1ccc(-c2ccccc2-c2nnn[nH]2)cc1 in your answer.
> 10 µM

Name the recorded EC50 of the item CCCCn1c(-c2ccc3nn(CCC)c(Cc4ccc(-c5ccccc5-c5nn[nH]n5)cc4)c3c2)nc2ccccc21 in your answer.
> 10 µM

Name the recorded EC50 of the item CCCn1nc2ccc(C(=O)NC(CC)c3ccccc3)cc2c1Cc1ccc(-c2ccccc2C(=O)O)cc1 (stereo not given) in your answer.
> 10 µM

---

Biological target: Peroxisome proliferator-activated receptor gamma (Mus musculus, UniProt P37238)
Sequence (P37238 whole entry): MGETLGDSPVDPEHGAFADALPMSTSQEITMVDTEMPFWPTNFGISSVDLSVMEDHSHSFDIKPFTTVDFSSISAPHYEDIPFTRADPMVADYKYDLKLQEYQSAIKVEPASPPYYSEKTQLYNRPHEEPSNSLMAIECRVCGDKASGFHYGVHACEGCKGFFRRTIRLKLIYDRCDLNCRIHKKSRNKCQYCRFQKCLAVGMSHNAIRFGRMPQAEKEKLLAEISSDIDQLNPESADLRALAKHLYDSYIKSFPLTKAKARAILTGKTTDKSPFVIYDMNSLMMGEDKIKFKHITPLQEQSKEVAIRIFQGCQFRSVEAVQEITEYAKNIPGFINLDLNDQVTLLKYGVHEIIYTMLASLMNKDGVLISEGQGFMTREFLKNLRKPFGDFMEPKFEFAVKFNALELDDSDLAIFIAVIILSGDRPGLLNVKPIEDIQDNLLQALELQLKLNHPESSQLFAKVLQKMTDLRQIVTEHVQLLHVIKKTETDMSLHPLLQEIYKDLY
Assay: Agonist activity at mouse PPARgamma expressed in CV-1 cells by reporter gene assay
Format: cell-based
pEC50: −log10 of the molar value.
measuredAttribute: pEC50

a = CCCCn1c(-c2ccc3nn(CCC)c(Cc4ccc(-c5ccccc5C(=O)O)cc4)c3c2)nc2ccccc21
b = CCCc1[nH]c2ccc(C(=O)NC(CC)c3ccccc3)cc2c1Cc1ccc(-c2ccccc2C(=O)O)cc1 (centres undefined)
c = CCCc1c(Cc2ccc(-c3ccccc3C(=O)O)cc2)c2cc(C(=O)NC(CC)c3ccccc3)ccc2n1OC (centres undefined)
d = CCCc1[nH]c2cc(C(=O)NC(CC)c3ccccc3)ccc2c1Cc1ccc(-c2ccccc2C(=O)O)cc1 (centres undefined)
Order the above compounds by increasing pEC50. // list labels; follow requested order
a, b, c, d
(a: 5.86, b: 6.29, c: 6.70, d: 8.05)
